biological target: human nerve growth factor (beta-NGF) (human, UniProt P01138 122-241); assay: cell-based or functional assay
Sequence (P01138 122-241): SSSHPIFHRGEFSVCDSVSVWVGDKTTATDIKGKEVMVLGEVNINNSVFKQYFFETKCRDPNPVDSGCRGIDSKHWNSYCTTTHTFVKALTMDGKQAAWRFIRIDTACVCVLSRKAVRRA
RECORDED ENDPOINT: IC50, PC12 cell survival (nM)

[
  {
    "BINDER": "1218H5 human IgG4 (antibody, V domains shown) VH: EVQLVQSGAVVKKPGSSVKVSCKASGGTFSTYGISWVRQAPGQGLEWIGGIIPIFDTGSSAQSFQGRVTITADESTSTAYMEVSSLRSDDTAVYYCASSSRIYDLNPSLTAYYDMDVWGQGTMVTVSS VL: QAVLTQPSSVSTPPGQKVTISCSGSSSNTGNNYVSWYQQLSGTAPKLLIYDNNKRPSGIPDRFSGSKSGTSATLGITGLQTGDEADYYCGTWDSSLSAWVFGGGTKLTVL",
    "RECORDED ENDPOINT": "IC50, PC12 cell survival",
    "ENDPOINT RESULT": 0.47
  },
  {
    "BINDER": "G1230H7 human IgG4 (antibody, V domains shown) VH: QVQLVQSGAEVKKPGSSVKVSCKASGGTFSTYGISWVRQAPGQGLEWMGGIIPIFDTGNSAQSFQGRVTITADESTSTAYMELSSLRSEDTAVYYCARSSRIYDFNSALISYYDMDVWGQGTMVTVSS VL: QSVLTQPPSVSAAPGQKVTISCSGSSSNIGNNYVSWYQQLPGTAPKLLIYDNNKRPSGIPDRFSGSKSGTSATLGITGLQTGDEADYYCGTWDSSLSAWVFGGGTKLTVL",
    "RECORDED ENDPOINT": "IC50, PC12 cell survival",
    "ENDPOINT RESULT": 2.5
  },
  {
    "BINDER": "1147D2 human IgG4 (antibody, V domains shown) VH: EVQLVQSGAEVKKPGSSVRISCKASGGTFSTYGVSWVRQAPGQGLEWIGGIIPIFDTGNSAQSFQGRVTITADESTSTAYMEVSSLRSDDTAVYYCASSSRIYDLNPSLTAYYDMDVWGQGTMVTVSS VL: QAVLTQPSSVSTPPGQKVTISCSGSSSNIGNNYVSWYQQLPGTAPKLLIYDNNKRPSGVPDRFSGSKSGTSATLGITGLQTGDEADYYCGTWDSSLSAWVFGGGTKLTVL",
    "RECORDED ENDPOINT": "IC50, PC12 cell survival",
    "ENDPOINT RESULT": 0.51
  }
]
